B1: glmS ribozyme (parent)
chain: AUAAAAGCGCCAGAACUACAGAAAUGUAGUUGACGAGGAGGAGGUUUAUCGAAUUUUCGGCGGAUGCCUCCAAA

Variants of: B1
PROCEDURE_SUMMARY: self-cleavage kobs at 2500 uM GlcN6P; higher = faster cleavage; RNA array
ASSAY_CONDITIONS: with glucosamine-6-phosphate
This sample holds only a part of the variants without activity.
Record Criterion met whenever self-cleavage kobs at 2500 uM GlcN6P is at 0.0002 s⁻¹ or higher; record Criterion not met when lower.

Use the examples below as a reference point.
{"MUTATION_NAME": "A14U U45C G60C G63C", "GROUP": "Criterion not met"}
{"MUTATION_NAME": "A14G U57G", "GROUP": "Criterion not met"}
{"MUTATION_NAME": "A33G G59C C68U", "GROUP": "Criterion not met"}
{"MUTATION_NAME": "G44U G63U", "GROUP": "Criterion not met"}
{"MUTATION_NAME": "G13C U31A", "GROUP": "Criterion not met"}

In plain terms: is recorded self-cleavage kobs at 2500 uM GlcN6P at least 0.0002 s⁻¹ for C11G C50G C58A ? Criterion met
